Tested on: RAW-Dual (murine macrophage reporter line)
Test: IRF reporter (Lucia luciferase) activity fold change vs agonist alone; higher = enhanced IRF activity
Settings: modulator concentration 10 µM; agonist: 3'3'-cGAMP 10 ug/mL
endpoint: IRF reporter
The reply should be a number, written without any unit.

The cases that follow already have their IRF reporter on record.
compound: COc1cc(Nc2ncc3c(n2)-c2ccc(Cl)cc2C(c2c(F)cccc2OC)=NC3)ccc1C(=O)O
IRF reporter: 0.974

compound: CC(C)(O)C#Cc1ccccn1
IRF reporter: 0.916

compound: CCOC(=O)c1ccc(N)cc1.Cl
IRF reporter: 0.819

compound: CC1(C)Cc2cccc(OCC(=O)NCc3ccccn3)c2O1
IRF reporter: 0.896

compound: NC(=O)c1cc(NC(=O)c2ccc(Cl)c(Cl)c2)cc(C(N)=O)c1
IRF reporter: 0.88

compound: Fc1ccc(CN2CCc3c([nH]c4ccccc34)C2)c(F)c1
IRF reporter: 0.909

compound: CC(=O)N1CCC(C(=O)NC(Cn2nccn2)c2ccccc2)CC1 (stereo unspecified)
IRF reporter: 1.04

compound: CCOC(=O)C1=C(C)NC(C)=C(C(=O)OCC)C1c1ccc(O)cc1
IRF reporter: 1.01

Exercise: Please report the measured IRF reporter for `CCCOc1ccc(C=CC(=O)Nc2ccc(S(=O)(=O)Nc3ncccn3)cc2)cc1OC` tested on RAW-Dual (murine macrophage reporter line).
Solution: 0.982

Exercise: Please report the measured IRF reporter for CCOC(=O)C1=C(C)NC(=O)N(C(C)=O)C1c1ccc(Br)cc1 (stereo unspecified) tested on RAW-Dual (murine macrophage reporter line).
Solution: 1.28

Exercise: Please report the measured IRF reporter for CCOC(=O)C(CCc1ccccc1)NC(C)C(=O)N1C(C(=O)O)CC2CCCCC21 (stereo unspecified) tested on RAW-Dual (murine macrophage reporter line).
Solution: 0.953

Exercise: Please report the measured IRF reporter for `Cc1nc(-c2ccc(OCC(C)C)c(C#N)c2)sc1C(=O)O` tested on RAW-Dual (murine macrophage reporter line).
Solution: 0.883

Exercise: Please report the measured IRF reporter for `COc1cc2ccc(=O)oc2cc1O` tested on RAW-Dual (murine macrophage reporter line).
Solution: 0.909

Exercise: Please report the measured IRF reporter for `CN(C)c1ccc(C=C2C(=O)C(=O)c3ccccc32)cc1Br` tested on RAW-Dual (murine macrophage reporter line).
Solution: 1.02

====

System: RAW-Dual (murine macrophage reporter line)
Experiment: NF-kB reporter (SEAP) activity fold change vs agonist alone; higher = enhanced NF-kB activity
Details: modulator concentration 10 µM; agonist: CpG ODN 1826 0.5 ug/mL
Each entry below lists one item and its recorded NF-kB reporter value.
The reply should be a number, written without any unit.

The cases that follow already have their NF-kB reporter on record.
compound: CCCOc1ccc(C=CC(=O)Nc2ccc(S(=O)(=O)Nc3ncccn3)cc2)cc1OC
targetOrTestSystem: RAW-Dual (murine macrophage reporter line)
NF-kB reporter: 0.938

compound: Cc1ccc(CN2C3=NCCCN3c3ccccc32)cc1.Cl
targetOrTestSystem: RAW-Dual (murine macrophage reporter line)
NF-kB reporter: 0.294

compound: O=C(C=Cc1ccc(Cl)c(Cl)c1)c1ccc2ccccc2c1O
targetOrTestSystem: RAW-Dual (murine macrophage reporter line)
NF-kB reporter: 1.09

Exercise: Please report the measured NF-kB reporter for COc1ccc(C(=O)Nc2sc3c(c2C(N)=O)CCC(C)C3)c(OC)c1 (stereo not drawn) tested on RAW-Dual (murine macrophage reporter line).
Solution: 1.09

Exercise: Please report the measured NF-kB reporter for `Oc1ccc(O)cc1` tested on RAW-Dual (murine macrophage reporter line).
Solution: 1.33

Exercise: Please report the measured NF-kB reporter for O=C1OC(=O)C2C3CCC(O3)C12 (stereo not drawn) tested on RAW-Dual (murine macrophage reporter line).
Solution: 1.66

Exercise: Please report the measured NF-kB reporter for `Cc1c(C)n2c3c(=O)n(Cc4ccccc4F)c(=O)n(C)c3nc2n1CCCN1CCOCC1` tested on RAW-Dual (murine macrophage reporter line).
Solution: 0.843

Exercise: Please report the measured NF-kB reporter for `Cn1cnc2cc(NCc3nc4ccccc4n3C)ccc21` tested on RAW-Dual (murine macrophage reporter line).
Solution: 0.818
